- Measured On: SMARCA4 (Homo sapiens, UniProt P51532)
- Construct: SMARCA2/SMARCA4 protein degradation selectivity in MV4-11 cells; endogenous in cells; host or cells: MV4-11
- Sequence (P51532 whole entry): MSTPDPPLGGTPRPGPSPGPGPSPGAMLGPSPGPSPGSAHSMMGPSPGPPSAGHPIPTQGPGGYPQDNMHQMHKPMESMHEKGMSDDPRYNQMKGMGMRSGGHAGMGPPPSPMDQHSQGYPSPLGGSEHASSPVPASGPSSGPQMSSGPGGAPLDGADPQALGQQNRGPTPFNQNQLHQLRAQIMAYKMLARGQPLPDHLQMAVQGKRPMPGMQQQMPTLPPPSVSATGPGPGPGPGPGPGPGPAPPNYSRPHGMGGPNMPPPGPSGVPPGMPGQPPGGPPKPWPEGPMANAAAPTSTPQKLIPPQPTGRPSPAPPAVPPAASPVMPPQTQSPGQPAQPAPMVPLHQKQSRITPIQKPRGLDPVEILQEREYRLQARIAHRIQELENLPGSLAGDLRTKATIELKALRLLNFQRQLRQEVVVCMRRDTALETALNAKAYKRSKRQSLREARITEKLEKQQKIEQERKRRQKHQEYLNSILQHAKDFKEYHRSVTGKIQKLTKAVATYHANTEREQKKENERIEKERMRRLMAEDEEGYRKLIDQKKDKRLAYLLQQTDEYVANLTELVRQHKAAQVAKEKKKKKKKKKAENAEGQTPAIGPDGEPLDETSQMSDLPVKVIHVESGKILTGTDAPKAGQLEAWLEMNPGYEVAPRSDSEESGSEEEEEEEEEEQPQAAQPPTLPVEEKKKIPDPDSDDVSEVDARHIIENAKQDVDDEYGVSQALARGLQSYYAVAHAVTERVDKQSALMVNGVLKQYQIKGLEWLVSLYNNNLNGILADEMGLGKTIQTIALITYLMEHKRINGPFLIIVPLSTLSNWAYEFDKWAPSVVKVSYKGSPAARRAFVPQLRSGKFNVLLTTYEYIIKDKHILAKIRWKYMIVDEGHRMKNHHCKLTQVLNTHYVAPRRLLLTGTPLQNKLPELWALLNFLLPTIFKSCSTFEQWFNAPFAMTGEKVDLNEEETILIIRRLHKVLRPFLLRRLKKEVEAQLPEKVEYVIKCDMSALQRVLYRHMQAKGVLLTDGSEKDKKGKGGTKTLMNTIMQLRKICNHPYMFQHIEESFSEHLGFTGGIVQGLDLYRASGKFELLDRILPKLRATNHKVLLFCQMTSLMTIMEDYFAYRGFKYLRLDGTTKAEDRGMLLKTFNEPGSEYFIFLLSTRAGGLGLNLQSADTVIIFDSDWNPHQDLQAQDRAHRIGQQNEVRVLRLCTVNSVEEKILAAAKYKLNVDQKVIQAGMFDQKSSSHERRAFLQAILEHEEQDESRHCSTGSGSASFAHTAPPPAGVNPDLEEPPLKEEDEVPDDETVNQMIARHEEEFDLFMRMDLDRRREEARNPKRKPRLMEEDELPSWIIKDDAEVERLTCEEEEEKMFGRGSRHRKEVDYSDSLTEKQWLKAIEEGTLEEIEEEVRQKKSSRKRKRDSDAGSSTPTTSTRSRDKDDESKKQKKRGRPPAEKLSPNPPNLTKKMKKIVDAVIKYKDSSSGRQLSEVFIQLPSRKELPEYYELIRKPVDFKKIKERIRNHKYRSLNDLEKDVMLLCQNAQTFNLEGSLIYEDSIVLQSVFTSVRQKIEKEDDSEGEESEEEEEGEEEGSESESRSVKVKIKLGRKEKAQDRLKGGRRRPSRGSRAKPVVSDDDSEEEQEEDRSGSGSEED
- Experimental Protocol: SMARCA4 Western blot degradation in MV4-11 cells
- Format: cell-based
- Reported Conditions: MV4-11, MV4-11 cells, 24 h; read-out: SMARCA4 MSD MV411 degradation 24 h: average Dmax %
# maps each entry to its Dmax

Answered examples (3):
C#Cc1ccc(CNC(=O)[C@@H]2C[C@@H](O)CN2C(=O)[C@@H](NC(=O)[C@H]2CCC3(CC2)C[C@H](N2CCC(N(C)CCN4CCN5c6cc(-c7ccccc7O)nnc6NC[C@H]5C4)CC2)C3)C(C)(C)C)cc1 (single isomer, unassigned) [I-246]: 50 to 70%
C#Cc1ccc(CNC(=O)[C@@H]2C[C@@H](O)CN2C(=O)[C@@H](NC(=O)[C@H]2CCC3(CC2)C[C@H](N2CCN(c4cnc(N5CCN6c7cc(-c8ccccc8O)nnc7NC[C@H]6C5)nc4)CC2)C3)C(C)(C)C)cc1 (single isomer, unassigned) [I-122]: 50 to 70%
C#Cc1ccc(CNC(=O)[C@@H]2C[C@@H](O)CN2C(=O)[C@@H](NC(=O)C2CC3(C2)CN(c2cnc(N4CCC(N5CCN6c7cc(-c8ccccc8O)nnc7NC[C@H]6C5)CC4)cn2)C3)C(C)(C)C)cc1 [I-320]: > 90%

# input So what does the record say about Dmax for C#Cc1ccc(CNC(=O)[C@@H]2C[C@@H](O)CN2C(=O)[C@@H](NC(=O)[C@H]2CCC3(CC2)C[C@H](N2CCC(c4cnc(N5CCN6c7cc(-c8ccccc8O)nnc7NC[C@H]6C5)nc4)CC2)C3)C(C)(C)C)c(Cl)c1 (single isomer, unassigned) [I-98] ?
# output < 50%

---

- Measured On: SMARCA2 (Homo sapiens)
- Sequence (P51531 whole entry): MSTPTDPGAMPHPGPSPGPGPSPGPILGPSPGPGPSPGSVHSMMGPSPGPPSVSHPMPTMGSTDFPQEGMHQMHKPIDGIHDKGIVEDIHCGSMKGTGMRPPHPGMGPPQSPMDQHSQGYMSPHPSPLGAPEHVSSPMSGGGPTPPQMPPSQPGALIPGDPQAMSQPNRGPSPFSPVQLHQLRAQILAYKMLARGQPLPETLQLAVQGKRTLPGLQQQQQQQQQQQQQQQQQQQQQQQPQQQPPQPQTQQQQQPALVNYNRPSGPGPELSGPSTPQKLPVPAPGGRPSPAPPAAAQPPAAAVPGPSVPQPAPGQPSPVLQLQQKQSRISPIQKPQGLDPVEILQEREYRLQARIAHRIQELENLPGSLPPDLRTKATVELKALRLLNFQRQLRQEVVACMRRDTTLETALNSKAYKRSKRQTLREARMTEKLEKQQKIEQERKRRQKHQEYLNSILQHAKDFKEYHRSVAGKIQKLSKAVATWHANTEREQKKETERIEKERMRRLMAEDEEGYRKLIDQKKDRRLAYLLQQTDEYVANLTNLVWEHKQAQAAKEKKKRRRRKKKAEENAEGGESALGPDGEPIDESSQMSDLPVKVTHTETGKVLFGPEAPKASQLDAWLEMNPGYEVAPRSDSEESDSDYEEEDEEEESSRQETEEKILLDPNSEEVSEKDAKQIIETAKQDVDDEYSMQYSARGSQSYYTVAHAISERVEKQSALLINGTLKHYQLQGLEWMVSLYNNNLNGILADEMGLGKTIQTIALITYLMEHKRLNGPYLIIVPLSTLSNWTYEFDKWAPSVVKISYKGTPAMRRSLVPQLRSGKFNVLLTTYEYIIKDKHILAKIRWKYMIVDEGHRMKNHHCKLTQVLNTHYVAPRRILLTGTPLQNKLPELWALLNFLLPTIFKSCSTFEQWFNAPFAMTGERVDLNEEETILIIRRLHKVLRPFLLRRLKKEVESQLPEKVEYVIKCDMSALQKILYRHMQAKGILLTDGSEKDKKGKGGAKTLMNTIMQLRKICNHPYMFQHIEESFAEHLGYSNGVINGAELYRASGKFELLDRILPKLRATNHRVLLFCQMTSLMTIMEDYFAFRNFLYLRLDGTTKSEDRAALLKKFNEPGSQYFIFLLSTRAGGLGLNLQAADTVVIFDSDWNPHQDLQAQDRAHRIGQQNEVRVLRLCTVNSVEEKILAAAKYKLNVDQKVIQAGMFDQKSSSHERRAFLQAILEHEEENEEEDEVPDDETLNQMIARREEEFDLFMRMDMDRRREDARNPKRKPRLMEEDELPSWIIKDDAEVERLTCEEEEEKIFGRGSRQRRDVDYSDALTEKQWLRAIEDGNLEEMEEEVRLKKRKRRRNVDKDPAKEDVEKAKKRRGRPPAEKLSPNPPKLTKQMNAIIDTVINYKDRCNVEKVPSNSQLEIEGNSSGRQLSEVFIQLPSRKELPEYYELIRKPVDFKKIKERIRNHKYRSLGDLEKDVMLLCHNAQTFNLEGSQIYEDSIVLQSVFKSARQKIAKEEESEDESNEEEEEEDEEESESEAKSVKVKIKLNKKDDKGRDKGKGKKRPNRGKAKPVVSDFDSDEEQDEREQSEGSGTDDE
- Experimental Protocol: SMARCA2 Western blot degradation in MV4-11 cells
- Type: cell-based
- Parameters: SMARCA2/SMARCA4 protein degradation selectivity in MV4-11 cells; endogenous in cells; host or cells: MV4-11
- Reported Conditions: MV4-11, MV4-11 cells, 24 h; read-out: SMARCA2 MSD MV411 degradation 24 h: average Dmax %
Experimental Readout: Dmax

Example cases with answers are listed next.
C#Cc1ccc([C@H](C)NC(=O)[C@@H]2C[C@@H](O)CN2C(=O)[C@@H](NC(=O)N2CC3(CC(N4CCC(c5cnc(N6CCc7[nH]c8nnc(-c9ccccc9O)cc8c7[C@H]6C)nc5)CC4)C3)C2)C(C)(C)CCO)cc1: 70 to 90%
Cc1ncsc1-c1ccc(CNC(=O)[C@@H]2C[C@@H](O)CN2C(=O)C(c2cc(N3CC4(CCC(N5CCC(c6cnc(N7CCc8[nH]c9nnc(-c%10ccccc%10O)cc9c8[C@@H]7C)nc6)CC5)CC4)C3)no2)C(C)C)cc1 (single isomer, unassigned): > 90%
C#Cc1ccc(C2(NC(=O)[C@@H]3C[C@@H](O)CN3C(=O)[C@@H](NC(=O)N3CC4(CC(N5CCC(N6CCC(N7CCc8[nH]c9nnc(-c%10ccccc%10O)cc9c8[C@H]7C)CC6)CC5)C4)C3)C(C)(C)C)CC2)cc1: 50 to 70%
C#Cc1ccc(CNC(=O)[C@@H]2C[C@@H](O)CN2C(=O)[C@@H](NC(=O)[C@H]2CC3(C2)C[C@H](N2CCC(N4CCC(N5CCN6c7cc(-c8ccccc8O)nnc7NC[C@H]6C5)CC4)CC2)C3)C(C)(C)CCO)cc1 (single isomer, unassigned): 50 to 70%
C#Cc1ccc(CNC(=O)[C@@H]2C[C@@H](O)CN2C(=O)[C@H](NC(=O)N2CC3(CC(N4CCC(c5cnc(N6CCc7[nH]c8nnc(-c9ccccc9O)cc8c7[C@H]6C)nc5)CC4)C3)C2)C(C)(C)CCN2CCNCC2)cc1: < 50%
C#Cc1ccc(CNC(=O)[C@@H]2C[C@@H](O)CN2C(=O)[C@@H](NC(=O)[C@H]2CCC3(CC2)C[C@H](N2CCC(c4cnc(N5CCN6c7cc(-c8ccccc8O)nnc7NC[C@H]6C5)nc4)CC2)C3)C(C)(C)C)cc1 (single isomer, unassigned): 70 to 90%

# input Look up Dmax for this compound: C#Cc1ccc(CNC(=O)[C@@H]2C[C@@H](O)CN2C(=O)[C@@H](NC(=O)C2CCC3(CC2)CC(N2CCC(N4CCC[C@@H](C(=O)N5CCN6c7cc(-c8ccccc8O)nnc7NC[C@H]6C5)C4)CC2)C3)C(C)(C)C)cc1 (single isomer, unassigned)
# output 70 to 90%

# input Fill in the blank: the reported Dmax of C#Cc1ccc(CNC(=O)[C@@H]2C[C@@H](O)CN2C(=O)[C@@H](NC(=O)N2CC3(CC(N4CCC(N5CCC(N6CCc7[nH]c8nnc(-c9ccccc9O)cc8c7[C@H]6C)CC5)CC4)C3)C2)C(C)(C)C)c(F)c1 is ____.
# output 50 to 70%
